Reference source: patent US12370182B2

# ASSAY SYSTEM: human recombinant GABAA α5β3γ2 receptor (Homo sapiens (Human), UniProt P18507+P31644)
# Sequence (P31644 32-462): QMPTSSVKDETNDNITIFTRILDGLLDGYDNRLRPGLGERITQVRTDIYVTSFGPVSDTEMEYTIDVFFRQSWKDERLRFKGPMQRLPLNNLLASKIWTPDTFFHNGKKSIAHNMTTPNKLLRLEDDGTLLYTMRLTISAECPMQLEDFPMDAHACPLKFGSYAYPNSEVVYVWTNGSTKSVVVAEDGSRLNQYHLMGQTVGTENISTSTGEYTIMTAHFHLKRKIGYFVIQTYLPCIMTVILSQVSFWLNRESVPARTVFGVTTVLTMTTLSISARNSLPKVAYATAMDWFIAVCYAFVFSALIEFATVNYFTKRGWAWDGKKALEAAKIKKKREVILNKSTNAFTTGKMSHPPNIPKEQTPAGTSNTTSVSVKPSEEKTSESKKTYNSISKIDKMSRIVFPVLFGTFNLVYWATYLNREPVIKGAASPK
# Sequence (P28472 26-473 partner): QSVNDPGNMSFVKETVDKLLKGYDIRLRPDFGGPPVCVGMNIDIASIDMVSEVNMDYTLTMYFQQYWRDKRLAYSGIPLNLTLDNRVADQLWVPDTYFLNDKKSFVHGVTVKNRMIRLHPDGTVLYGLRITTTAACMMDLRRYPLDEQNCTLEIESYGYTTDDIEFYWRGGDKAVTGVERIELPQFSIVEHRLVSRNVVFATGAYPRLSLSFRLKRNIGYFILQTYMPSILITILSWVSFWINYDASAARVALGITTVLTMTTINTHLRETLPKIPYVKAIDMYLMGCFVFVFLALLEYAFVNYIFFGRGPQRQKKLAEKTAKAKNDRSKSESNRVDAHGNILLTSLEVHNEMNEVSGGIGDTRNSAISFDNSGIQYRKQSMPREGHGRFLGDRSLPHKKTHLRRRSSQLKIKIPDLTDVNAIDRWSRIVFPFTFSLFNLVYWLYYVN
# Sequence (P18507 40-475): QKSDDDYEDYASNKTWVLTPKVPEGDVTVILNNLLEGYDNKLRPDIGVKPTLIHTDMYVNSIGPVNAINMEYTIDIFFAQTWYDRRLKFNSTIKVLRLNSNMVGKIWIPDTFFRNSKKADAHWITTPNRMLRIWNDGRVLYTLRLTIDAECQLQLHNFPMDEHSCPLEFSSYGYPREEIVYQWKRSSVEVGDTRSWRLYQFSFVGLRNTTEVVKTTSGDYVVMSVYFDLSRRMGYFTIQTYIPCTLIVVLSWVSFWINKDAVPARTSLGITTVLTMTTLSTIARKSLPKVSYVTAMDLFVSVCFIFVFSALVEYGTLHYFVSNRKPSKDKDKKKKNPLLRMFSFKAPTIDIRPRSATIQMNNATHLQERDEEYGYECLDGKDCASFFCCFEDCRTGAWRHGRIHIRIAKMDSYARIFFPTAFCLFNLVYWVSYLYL
# TEST SUMMARY: Binding assay, [3H]Ro151788 displacement on membranes of HEK cells
# TEST CONTEXT: 0.5 nM [3H]Ro151788, 60 minutes at 4° C., Cheng-Prusoff; read-out: hGABAA α5 Ki
Measured Ki of individual entries

COMPOUND | ASSAY SYSTEM | Ki (nM)
Cc1onc(-c2ccc(F)cc2)c1COc1ccc2c(n1)CCN(C(=O)C1CCOC1)C2 (centres unmarked) | human recombinant GABAA α5β3γ2 receptor (Homo sapiens (Human), UniProt P18507+P31644) | 7
CC(=O)N1CCc2nc(OCc3c(-c4ccc(F)cc4)noc3C)ccc2C1 | human recombinant GABAA α5β3γ2 receptor (Homo sapiens (Human), UniProt P18507+P31644) | 2.8
COCC(=O)N1CCc2nc(OCc3c(C)nnn3-c3ccc(Cl)cc3)ccc2C1 | human recombinant GABAA α5β3γ2 receptor (Homo sapiens (Human), UniProt P18507+P31644) | 13
Cc1onc(-c2ccc(F)cc2)c1COc1ccc2c(n1)CCN(C(=O)c1ccno1)C2 | human recombinant GABAA α5β3γ2 receptor (Homo sapiens (Human), UniProt P18507+P31644) | 5
CC(=O)N1Cc2ccc(OCc3c(-c4ccc(Cl)cc4)nnn3C)nc2C1 | human recombinant GABAA α5β3γ2 receptor (Homo sapiens (Human), UniProt P18507+P31644) | 7.5
CCN1CC(C(=O)N2CCc3nc(OCc4c(C)nnn4-c4ccc(F)cc4)ccc3C2)CC1=O (centres unmarked) | human recombinant GABAA α5β3γ2 receptor (Homo sapiens (Human), UniProt P18507+P31644) | 30
Cc1nnn(-c2ccc(F)cc2)c1COc1ccc2c(n1)CCN(C(=O)C1CCOC1)C2 (centres unmarked) | human recombinant GABAA α5β3γ2 receptor (Homo sapiens (Human), UniProt P18507+P31644) | 42
Cc1nnn(-c2ccc(Cl)cc2)c1COc1ccc2c(n1)CCN(C(=O)c1ccncc1)C2 | human recombinant GABAA α5β3γ2 receptor (Homo sapiens (Human), UniProt P18507+P31644) | 14
Cc1nnn(-c2ccc(F)cc2)c1COc1ccc2c(n1)CCN(C(=O)c1ccccn1)C2 | human recombinant GABAA α5β3γ2 receptor (Homo sapiens (Human), UniProt P18507+P31644) | 80
Cc1nnn(-c2ccc(F)cc2)c1COc1ccc2c(n1)CN(C(=O)CF)C2 | human recombinant GABAA α5β3γ2 receptor (Homo sapiens (Human), UniProt P18507+P31644) | 5.3
Cn1nnc(-c2ccc(F)cc2)c1COc1ccc2c(n1)CN(C(=O)C1CCCO1)C2 (centres unmarked) | human recombinant GABAA α5β3γ2 receptor (Homo sapiens (Human), UniProt P18507+P31644) | 18
Cc1nnn(-c2ccc(F)cc2)c1COc1ccc2c(n1)CN(C(=O)C(C)C)C2 | human recombinant GABAA α5β3γ2 receptor (Homo sapiens (Human), UniProt P18507+P31644) | 13
CC(=O)N1Cc2ccc(OCc3c(-c4ccc(F)cc4)nnn3C)nc2C1 | human recombinant GABAA α5β3γ2 receptor (Homo sapiens (Human), UniProt P18507+P31644) | 20
Cc1nnn(-c2ccc(F)cc2)c1COc1ccc2c(n1)CN(C(=O)C1CCOC1)C2 (centres unmarked) | human recombinant GABAA α5β3γ2 receptor (Homo sapiens (Human), UniProt P18507+P31644) | 5.7
COC1CCC(C(=O)N2CCc3nc(OCc4c(C)nnn4-c4ccc(F)cc4)ccc3C2)CC1 (centres unmarked) | human recombinant GABAA α5β3γ2 receptor (Homo sapiens (Human), UniProt P18507+P31644) | 71
Cc1nnn(-c2ccc(F)cc2)c1COc1ccc2c(n1)CN(C(=O)C(F)F)C2 | human recombinant GABAA α5β3γ2 receptor (Homo sapiens (Human), UniProt P18507+P31644) | 11
Cc1nnn(-c2ccc(F)cc2)c1COc1ccc2c(n1)CCN(C(=O)Nc1ccccc1Cl)C2 | human recombinant GABAA α5β3γ2 receptor (Homo sapiens (Human), UniProt P18507+P31644) | 108

====

# ASSAY SYSTEM: human recombinant GABAA α1β3γ2 receptor (Homo sapiens (Human), UniProt P14867+P18507)
# Sequence (P14867 28-456, one chain of several): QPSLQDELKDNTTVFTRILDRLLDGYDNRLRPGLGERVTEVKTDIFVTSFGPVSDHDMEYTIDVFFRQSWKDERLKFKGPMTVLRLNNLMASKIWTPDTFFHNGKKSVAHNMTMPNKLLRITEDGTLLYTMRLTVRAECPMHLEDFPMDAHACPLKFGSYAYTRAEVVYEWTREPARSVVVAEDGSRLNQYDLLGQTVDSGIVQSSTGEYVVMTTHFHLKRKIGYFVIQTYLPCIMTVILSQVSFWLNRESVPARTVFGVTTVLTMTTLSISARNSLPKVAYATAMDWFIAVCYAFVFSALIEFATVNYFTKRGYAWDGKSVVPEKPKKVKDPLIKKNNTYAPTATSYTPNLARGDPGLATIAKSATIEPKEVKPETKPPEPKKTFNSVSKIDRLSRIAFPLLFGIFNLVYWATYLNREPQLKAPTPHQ
# TEST SUMMARY: Functional assay, QPatch automated patch clamp, GABA-evoked currents
# Format: cell-based
# TEST CONTEXT: test compound 10 μM, 1 μM GABA, HEK293 cells, percentage modulation of peak current

MOLECULE | SCALE UNIT | hGABAA α1 efficacy
CC(=O)N1Cc2ccc(OCc3c(C)nnn3-c3ccc(F)cc3)nc2C1 [Example 45] | % | −7
CC(=O)N1CCc2nc(OCc3c(C)nnn3-c3ccc(F)cc3)ccc2C1 [Example 14] | % | 0
Cc1nnn(-c2ccc(Cl)cc2)c1COc1ccc2c(n1)CCN(C(=O)C1CCOC1)C2 (stereo not drawn) [Example 29] | % | −2

====

# ASSAY SYSTEM: human recombinant GABAA α1β3γ2 receptor (Homo sapiens (Human), UniProt P14867+P18507)
# TEST SUMMARY: Functional assay, QPatch automated patch clamp, GABA-evoked currents
# Type: cell-based
# TEST CONTEXT: test compound 10 μM, 1 μM GABA, HEK293 cells, percentage modulation of peak current
MEASUREMENT KIND: hGABAA α1 efficacy (%)

COMPOUND | ASSAY SYSTEM | ENDPOINT RESULT
Cc1onc(-c2ccc(F)cc2)c1COc1ccc2c(n1)CCN(C(=O)C1CCS(=O)(=O)CC1)C2 | human recombinant GABAA α1β3γ2 receptor (Homo sapiens (Human), UniProt P14867+P18507) | −10
Cc1nnn(-c2ccc(F)cc2)c1COc1ccc2c(n1)CCN(C(=O)C1CCS(=O)(=O)CC1)C2 | human recombinant GABAA α1β3γ2 receptor (Homo sapiens (Human), UniProt P14867+P18507) | −4
Cc1nnn(-c2ccc(F)cc2)c1COc1ccc2c(n1)CCN(C(=O)C1CCCO1)C2 (stereo not shown) | human recombinant GABAA α1β3γ2 receptor (Homo sapiens (Human), UniProt P14867+P18507) | −8
Cc1nnn(-c2ccc(F)cc2)c1COc1ccc2c(n1)CN(C(=O)CC(C)C)C2 | human recombinant GABAA α1β3γ2 receptor (Homo sapiens (Human), UniProt P14867+P18507) | −14
Cc1onc(-c2ccc(F)cc2)c1COc1ccc2c(n1)CCN(C(=O)C1CCOCC1)C2 | human recombinant GABAA α1β3γ2 receptor (Homo sapiens (Human), UniProt P14867+P18507) | −9
Cc1nnn(-c2ccc(F)cc2)c1COc1ccc2c(n1)CCN(C(=O)NC1CC(=O)N(C)C1)C2 (stereo not shown) | human recombinant GABAA α1β3γ2 receptor (Homo sapiens (Human), UniProt P14867+P18507) | −3
Cc1nnn(-c2ccc(F)cc2)c1COc1ccc2c(n1)CCN(C(=O)[C@@H]1CCOC1)C2 | human recombinant GABAA α1β3γ2 receptor (Homo sapiens (Human), UniProt P14867+P18507) | −6
Cc1nnn(-c2ccc(F)cc2)c1COc1ccc2c(n1)CCN(C(=O)C1CCOCC1)C2 | human recombinant GABAA α1β3γ2 receptor (Homo sapiens (Human), UniProt P14867+P18507) | −6
Cc1onc(-c2ccc(F)cc2)c1COc1ccc2c(n1)CCN(C(=O)C1CCOC1)C2 (stereo not shown) | human recombinant GABAA α1β3γ2 receptor (Homo sapiens (Human), UniProt P14867+P18507) | −14
Cc1nnn(-c2ccc(F)cc2)c1COc1ccc2c(n1)CCN(C(=O)C1CCOC1)C2 (stereo not shown) | human recombinant GABAA α1β3γ2 receptor (Homo sapiens (Human), UniProt P14867+P18507) | −7
Cc1nnn(-c2ccc(F)cc2)c1COc1ccc2c(n1)CCN(C(=O)NC1CCOC1)C2 (stereo not shown) | human recombinant GABAA α1β3γ2 receptor (Homo sapiens (Human), UniProt P14867+P18507) | −3
Cc1nnn(-c2ccc(F)cc2)c1COc1ccc2c(n1)CN(C(=O)C1CC1)C2 | human recombinant GABAA α1β3γ2 receptor (Homo sapiens (Human), UniProt P14867+P18507) | −10
Cc1onc(-c2ccc(F)cc2)c1COc1ccc2c(n1)CCN(C(=O)C1CC(=O)N(C)C1)C2 (stereo not shown) | human recombinant GABAA α1β3γ2 receptor (Homo sapiens (Human), UniProt P14867+P18507) | −3
Cc1nnn(-c2ccc(F)cc2)c1COc1ccc2c(n1)CCN(C(=O)[C@H]1CCOC1)C2 | human recombinant GABAA α1β3γ2 receptor (Homo sapiens (Human), UniProt P14867+P18507) | −5
Cc1nnn(-c2ccc(F)cc2)c1COc1ccc2c(n1)CN(C(=O)C1CCCO1)C2 (stereo not shown) | human recombinant GABAA α1β3γ2 receptor (Homo sapiens (Human), UniProt P14867+P18507) | −20
Cc1onc(-c2ccc(F)cc2)c1COc1ccc2c(n1)CCN(C(=O)CS(C)(=O)=O)C2 | human recombinant GABAA α1β3γ2 receptor (Homo sapiens (Human), UniProt P14867+P18507) | −2
